We begin with a simple list: items and their reported AUC(0-inf).
Experiment: AUC (0 to infinity) in Sprague-Dawley rat at 20 mg/kg, po
Type: ADME, organism-based
Design: time infinity, dose 20 mg/kg, route oral
Details: plasma
State just the number; it will be interpreted in ng·h/mL.

Here's what some known entries look like.
>>> numeric_readout("O=C1c2ccccc2-n2c1nc1c(c2=O)CCCC1")
19900
>>> numeric_readout("O=C1C2=Nc3ccccc3CN2c2ccc(Cl)cc21")
300

Next up:
Problem: Given the entry O=C1c2cc(C(=O)N3CCCCC3)ccc2-n2c1nc1ccccc1c2=O , report its measured AUC(0-inf).
Solution: 140

###

Experiment: Half life in C57BL/6 mouse at 40 mg/kg, po formulated in 0.5% methylcellulose
Format: ADME, organism-based
Design: dose 40 mg/kg, route oral
Conditions: in vivo
Readout Type: half-life (h)
Output spec: scalar in h, unitless text.

Problem: Which half-life is listed for O=C1c2ccccc2-n2c1nc1c(c2=O)CCCC1 ?
Solution: 4.99

###

Assay: Permeability across basolateral to apical side in human Caco2 cells incubated for 1 hr at 37 degC by HPLC-MS/MS method
Assay type: ADME, cell-based
Settings: Caco-2
Readout Type: Papp B→A at 1 h (×10⁻⁶ cm/s)
Quick reminder: number only, in ×10⁻⁶ cm/s, skip the unit.

Problem: // Papp B→A at 1 h lookup, key: O=C1c2ccc(Cl)cc2-n2c1nc1ccccc1c2=O
Solution: 0.1

Problem: Form field: reported Papp B→A at 1 h of O=C1c2cc(C(=O)N3CCCCC3)ccc2-n2c1nc1ccccc1c2=O
Solution: 26

Problem: Reported Papp B→A at 1 h for CCOC(=O)c1ccc2c(c1)C(=O)c1nc3ccccc3c(=O)n1-2 : what is it?
Solution: 0.8

###

Quick reference for half-life among some molecules
Experiment: Half life in Sprague-Dawley rat at 20 mg/kg, po
Type: ADME, organism-based
Parameters: dose 20 mg/kg, route oral
Settings: in vivo
The reply should be a number in h, with the unit left off.

Example molecules with recorded half-life:
>>> numeric_readout("O=C1C2=Nc3ccccc3CN2c2ccc(Cl)cc21")
3.33
>>> numeric_readout("O=C1c2cc(C(=O)N3CCCCC3)ccc2-n2c1nc1ccccc1c2=O")
7.34

From here, focus on the item given below.
Problem: Reported half-life, molecule O=C1c2ccccc2-n2c1nc1c(c2=O)CCCC1 : ____
Solution: 6.29

###

Assay: Metabolic stability in human liver microsomes assessed as parent compound remaining at 1 uM incubated for 1 hr by HPLC-MS/MS method
Assay type: ADME, Microsome
Conditions: read-out: Stability
Note: every record was labeled by where its remaining at 1 h, 1 µM sits among bin A = under 30%, bin B = from 30% up to 60%, bin C = 60% and over

>>> group_label("O=C1c2cc(Cl)ccc2-n2c1nc1ccc(F)cc1c2=O")
"bin C"
>>> group_label("O=C1c2cc(Cl)ccc2-n2c1nc1ncccc1c2=O")
"bin C"
>>> group_label("O=C1c2cc(Br)ccc2-n2c1nc1ccncc1c2=O")
"bin C"

Problem: Lab note: which band did O=C1c2ccccc2-n2c1nc1ccccc1c2=O land in?
Solution: bin A

Problem: Band of O=C1c2cc(C(=O)N3CCCCC3)ccc2-n2c1nc1ccccc1c2=O ?
Solution: bin C

Problem: Input O=C1c2cc(F)ccc2-n2c1nc1ccccc1c2=O ; output its category
Solution: bin B

Problem: Looking at O=C1C2=Nc3ccccc3CN2c2ccc(Cl)cc21 , which class would you pick?
Solution: bin B

Problem: Please report the category associated with O=C1c2cc([N+](=O)[O-])ccc2-n2c1nc1ccccc1c2=O , nothing else.
Solution: bin B

Values compiled from ChEMBL document CHEMBL2346548.
